- assay target: UniProtKB P35968
- Sequence (P35968 20-1356): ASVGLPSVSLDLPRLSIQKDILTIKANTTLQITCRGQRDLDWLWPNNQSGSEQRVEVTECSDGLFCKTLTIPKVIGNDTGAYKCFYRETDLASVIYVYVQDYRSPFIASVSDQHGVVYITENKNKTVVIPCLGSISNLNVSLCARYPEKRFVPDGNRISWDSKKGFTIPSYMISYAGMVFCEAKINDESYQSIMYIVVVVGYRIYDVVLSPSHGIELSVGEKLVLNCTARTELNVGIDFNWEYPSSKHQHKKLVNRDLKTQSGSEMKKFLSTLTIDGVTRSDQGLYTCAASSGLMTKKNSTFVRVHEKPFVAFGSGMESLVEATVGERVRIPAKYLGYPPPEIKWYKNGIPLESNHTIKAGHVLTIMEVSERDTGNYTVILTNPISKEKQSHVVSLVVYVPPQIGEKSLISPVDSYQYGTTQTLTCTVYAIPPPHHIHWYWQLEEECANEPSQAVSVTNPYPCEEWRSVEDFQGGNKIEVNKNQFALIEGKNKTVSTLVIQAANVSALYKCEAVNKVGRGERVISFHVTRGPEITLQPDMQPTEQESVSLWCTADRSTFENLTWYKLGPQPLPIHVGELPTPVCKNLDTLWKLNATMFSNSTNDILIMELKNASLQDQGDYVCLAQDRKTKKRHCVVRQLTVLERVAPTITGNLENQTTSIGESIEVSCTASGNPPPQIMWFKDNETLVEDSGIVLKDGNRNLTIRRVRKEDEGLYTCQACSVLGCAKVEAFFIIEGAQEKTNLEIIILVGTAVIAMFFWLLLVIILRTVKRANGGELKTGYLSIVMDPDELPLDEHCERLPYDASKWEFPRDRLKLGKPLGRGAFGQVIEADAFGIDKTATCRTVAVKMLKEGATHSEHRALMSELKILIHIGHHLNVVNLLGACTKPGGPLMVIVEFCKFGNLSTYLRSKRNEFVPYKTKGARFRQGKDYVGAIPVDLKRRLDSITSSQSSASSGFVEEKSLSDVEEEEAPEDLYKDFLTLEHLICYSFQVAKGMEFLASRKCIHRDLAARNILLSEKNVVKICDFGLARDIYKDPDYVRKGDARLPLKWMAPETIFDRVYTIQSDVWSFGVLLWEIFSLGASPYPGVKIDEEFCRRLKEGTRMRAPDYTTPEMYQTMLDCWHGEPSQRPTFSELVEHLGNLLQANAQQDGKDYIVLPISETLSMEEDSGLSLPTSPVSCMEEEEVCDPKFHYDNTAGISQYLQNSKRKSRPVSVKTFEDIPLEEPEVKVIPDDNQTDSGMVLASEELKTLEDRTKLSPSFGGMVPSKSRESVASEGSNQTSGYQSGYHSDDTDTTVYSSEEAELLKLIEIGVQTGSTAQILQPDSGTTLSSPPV
So I've got a bunch of molecules here, and I need their pIC50 values.
Give bare numbers, as −log10 of the molar value.

Hi there! I need pIC50 for each item below, if you can.
1. O=C(CSc1nc2ccccc2o1)Nc1ccc(C(=O)NCc2ccccc2)cc1
2. Cc1ccc2oc(SCC(=O)Nc3ccc(C(=O)NCc4ccccc4)cc3)nc2c1
3. Cc1ccc(NC(=O)c2ccc(NC(=O)CSc3nc4ccccc4o3)cc2)cc1
4. O=C(CSc1nc2cc(Cl)ccc2o1)Nc1ccc(C(=O)Nc2ccc([N+](=O)[O-])cc2)cc1
5. Cc1ccc2oc(SCC(=O)Nc3ccc(C(=O)Nc4ccc([N+](=O)[O-])cc4)cc3)nc2c1

Outgoing:
1: 6.50; 2: 6.18; 3: 7.24; 4: 7.13; 5: 6.69

* * *

- System: breast cancer (MCF-7)
- assay overview: In vitro anti-proliferative MTT assay, MCF-7
- experimental context: Homo sapiens, MCF7, 24 h, read-out: IC50 MCF-7
The label is 1 (yes) for IC50 below 6 µM and 0 (no) for IC50 equal to or exceeding 6 µM.

// known answers, use as guide
> print(dat)
                           structure.string  category
1  O=C(CSc1nc2cc(Cl)ccc2o1)Nc1ccc(C(=O)Nc2ccc([N+](=O)[O-])cc2)cc1   1 (yes)
2  CC(=O)c1ccc(NC(=O)c2ccc(NC(=O)CSc3nc4cc(C)ccc4o3)cc2)cc1   1 (yes)
3  CC(=O)c1ccc(NC(=O)c2ccc(NC(=O)CSc3nc4cc(Cl)ccc4o3)cc2)cc1    0 (no)
4  Cc1ccc2oc(SCC(=O)Nc3ccc(C(=O)NCc4ccccc4)cc3)nc2c1    0 (no)
5  O=C(CSc1nc2cc(Cl)ccc2o1)Nc1ccc(C(=O)NCc2ccccc2)cc1    0 (no)

Incoming: Consider `O=C(CSc1nc2ccccc2o1)Nc1ccc(C(=O)NCCc2ccccc2)cc1` . Does its IC50 lie strictly below 6 µM?
Outgoing: 0 (no)

Incoming: Here's an entry: `Cc1ccc2oc(SCC(=O)Nc3ccc(C(=O)NCCc4ccccc4)cc3)nc2c1` . Is its IC50 below 6 µM?
Outgoing: 0 (no)

Incoming: Please state whether IC50 is below 6 µM for `Cc1ccc2oc(SCC(=O)Nc3ccc(C(=O)Nc4ccc([N+](=O)[O-])cc4)cc3)nc2c1`
Outgoing: 1 (yes)
